system: colorectal tissue transcripts; assay: SAGE of normal, adenoma and cancer colorectal tissue (transcript tag counts); parameters: species or system human; conditions: normal colorectal tissue library 2
NC2 (SAGE tag count) reference
Reply with just the number.

Here are 6 sequences together with their reported answers.
TAAGGCCTTT (chemistry not fully specified; the letters are possibly those of the target site) : 9
TGGCTACTTA (chemistry not fully specified) : 9
TCACCGGTCA (chemistry not fully specified) : 75
TGCAGCACGA (chemistry not fully specified) : 185
TTTCCTCTCA (chemistry not fully specified) : 8
TGCAGCGCCT (chemistry not fully specified; the letters are possibly those of the target site) : 9

Asked: Recall the reported NC2 (SAGE tag count) of TCACAGTGCC (chemistry not fully specified) when tested on colorectal tissue transcripts.
Given back: 7

Asked: Specify NC2 (SAGE tag count) for TGATCTCTGT (chemistry not fully specified) , system colorectal tissue transcripts.
Given back: 7

Asked: // fetch NC2 (SAGE tag count) for GTTTAGAGGG (chemistry not fully specified) ; system: colorectal tissue transcripts
Given back: 16

Asked: Please report NC2 (SAGE tag count) with colorectal tissue transcripts for item TTAACCCCTC (chemistry not fully specified) .
Given back: 14

Asked: Look up colorectal tissue transcripts data: NC2 (SAGE tag count) of TCGGAGCTGT (chemistry not fully specified) , then report it.
Given back: 20

Asked: Report the value of NC2 (SAGE tag count) obtained on colorectal tissue transcripts for TTTTCTGCAT (chemistry not fully specified) .
Given back: 7

Asked: Give measured NC2 (SAGE tag count) for TTTTTACTGA (chemistry not fully specified) (colorectal tissue transcripts).
Given back: 19

Asked: Write down measured NC2 (SAGE tag count) (colorectal tissue transcripts) for this sequence. TCTGAATTAT (chemistry not fully specified)
Given back: 16

Asked: Fill in NC2 (SAGE tag count) for TTCTGTAGCC (chemistry not fully specified) tested with colorectal tissue transcripts.
Given back: 23

Asked: Lab note: record NC2 (SAGE tag count) of TTCCACTAAC (chemistry not fully specified) tested on colorectal tissue transcripts.
Given back: 9

Asked: Specify NC2 (SAGE tag count) for TGCCGCCCGC (chemistry not fully specified) , system colorectal tissue transcripts.
Given back: 5

Asked: Return reported NC2 (SAGE tag count) for target or system colorectal tissue transcripts, item TAGACTAGCA (chemistry not fully specified) .
Given back: 27

Asked: Give NC2 (SAGE tag count) only, for TAAATTGCAA (chemistry not fully specified) , using colorectal tissue transcripts data.
Given back: 59

Asked: Report the value of NC2 (SAGE tag count) obtained on colorectal tissue transcripts for TACTGTGGAT (chemistry not fully specified) .
Given back: 11

Asked: Find NC2 (SAGE tag count) for TTGGACCTGG (chemistry not fully specified) on colorectal tissue transcripts and write it down.
Given back: 31

---

system: colorectal tissue transcripts; assay: SAGE of normal, adenoma and cancer colorectal tissue (transcript tag counts); parameters: species or system human; conditions: SAGE library NC1
readout: NC1 (SAGE tag count)

CGCTGTGGGG (chemistry not fully specified) : 58
CGGGAGTCGG (chemistry not fully specified) : 28

Continue with the sequence presented below.
Asked: Please give measured NC1 (SAGE tag count) of the following entry: CCTGCTTGTC (chemistry not fully specified)
Given back: 20

---

sequences and their reported CA2 (SAGE tag count)
test system: colorectal tissue transcripts; assay: SAGE of normal, adenoma and cancer colorectal tissue (transcript tag counts); set-up: species or system human; settings: SAGE library CA2
Form: value (number only, do not type unit).

CCTGTGACAG (chemistry not fully specified) : 1
GGGAAGCAGA (chemistry not fully specified) : 9
AGGTGACTGG (chemistry not fully specified) : 0
GCCCACGTCA (chemistry not fully specified) : 0
AGGCCAAGGG (chemistry not fully specified) : 4
CCATTCCACT (chemistry not fully specified) : 0
GGGACGAGTG (chemistry not fully specified) : 1
CCGCTGCACT (chemistry not fully specified) : 30

Asked: Consider the sequence CCCTCCCGAA (chemistry not fully specified) and give its recorded CA2 (SAGE tag count).
Given back: 7

Asked: Read the entry ACAATTGGTC (chemistry not fully specified) and write its reported CA2 (SAGE tag count).
Given back: 0

Asked: Tell me CA2 (SAGE tag count) reported for CAGTGCGTTC (chemistry not fully specified)
Given back: 0

---

tested on: colorectal tissue transcripts; test: SAGE of normal, adenoma and cancer colorectal tissue (transcript tag counts); parameters: species or system human; conditions: SAGE library CA2
Assign met to entries whose CA2 (SAGE tag count) meets or exceeds 1; assign not met to the rest.

GCCTGGCCAT (chemistry not fully specified) : met

Asked: Please check the record AAATCTGGCA (chemistry not fully specified) and state if its CA2 (SAGE tag count) is at or above 1.
Given back: not met

Asked: For this sequence, is measured CA2 (SAGE tag count) 1 or higher? CCCCCGAAGC (chemistry not fully specified)
Given back: met

Asked: Confirm if CA2 (SAGE tag count) reported for the sequence CCCAACGCGC (chemistry not fully specified) is 1 or above.
Given back: met

---

test system: colorectal tissue transcripts; test: SAGE of normal, adenoma and cancer colorectal tissue (transcript tag counts); set-up: species or system human; conditions: SAGE library CA1
Reported CA1 (SAGE tag count) values are given for each entry in this list.
Provide a numeric answer; units are not to be included.

ATGTGGGCTC (chemistry not fully specified) : 0

Asked: Retrieve CA1 (SAGE tag count) on colorectal tissue transcripts; query CTCAGAACTT (chemistry not fully specified)
Given back: 0

---

test system: colorectal tissue transcripts; assay: SAGE of normal, adenoma and cancer colorectal tissue (transcript tag counts); parameters: species or system human; conditions: SAGE library AD1
readout: AD1 (SAGE tag count)

Worked set:
CTTGACATAC (chemistry not fully specified) : 4
GGGGCAGGGC (chemistry not fully specified) : 27
CCACTGCACC (chemistry not fully specified) : 5
GTGCACTGAG (chemistry not fully specified) : 14
ATGTGGGCTC (chemistry not fully specified) : 0
CCTGGAAGAG (chemistry not fully specified) : 11
GCGCAGAGGT (chemistry not fully specified) : 1
CCCTCCCGAA (chemistry not fully specified) : 9
AGAATAGCTT (chemistry not fully specified) : 3
AAGAAAGCTC (chemistry not fully specified) : 0

Asked: Quote AD1 (SAGE tag count) reported for GATGACCCCC (chemistry not fully specified) please.
Given back: 4

---

tested on: colorectal tissue transcripts; assay: SAGE of normal, adenoma and cancer colorectal tissue (transcript tag counts); design: species or system human; conditions: SAGE library NC1
readout: NC1 (SAGE tag count)
// keep it numeric: no unit symbol after the value

Completed entries (count: 5):
GGTGAAGAGG (chemistry not fully specified) : 16
CTGTGTGGCT (chemistry not fully specified; the letters are possibly those of the target site) : 0
GGGAAGCAGA (chemistry not fully specified) : 32
GCAGGAGGTG (chemistry not fully specified; the letters are possibly those of the target site) : 2
GAGAGCTCCC (chemistry not fully specified) : 5

Asked: Report NC1 (SAGE tag count) from colorectal tissue transcripts testing of ATGTGCGTGG (chemistry not fully specified)
Given back: 38

Asked: Would you please give the reported NC1 (SAGE tag count) of CTTAGAGGGG (chemistry not fully specified) with colorectal tissue transcripts?
Given back: 16

Asked: Answer with NC1 (SAGE tag count) of AAGAAAGCTC (chemistry not fully specified) measured for colorectal tissue transcripts.
Given back: 20

Asked: Report NC1 (SAGE tag count) from colorectal tissue transcripts testing of GGCCCTGCAG (chemistry not fully specified)
Given back: 14

Asked: Provide NC1 (SAGE tag count), recorded with colorectal tissue transcripts, of GCGCAGAGGT (chemistry not fully specified)
Given back: 2

Asked: State recorded NC1 (SAGE tag count) with colorectal tissue transcripts, entry CTTCCAGCTA (chemistry not fully specified) , no comment.
Given back: 64

Asked: # assay system colorectal tissue transcripts: give NC1 (SAGE tag count) of CCTCCAGTAC (chemistry not fully specified)
Given back: 20

Asked: // fetch NC1 (SAGE tag count); item: GCACCTGTCG (chemistry not fully specified) ; system: colorectal tissue transcripts
Given back: 2

Asked: Tell me NC1 (SAGE tag count) of ACATTGGGTG (chemistry not fully specified) when tested on colorectal tissue transcripts.
Given back: 377

Asked: State NC1 (SAGE tag count) (colorectal tissue transcripts) of ACGGTCCAGG (chemistry not fully specified) .
Given back: 5

Asked: Find NC1 (SAGE tag count) for GCCGGGTGGG (chemistry not fully specified) on colorectal tissue transcripts and write it down.
Given back: 207

Asked: Name the recorded NC1 (SAGE tag count) of GGATGGCTTA (chemistry not fully specified) , assay system colorectal tissue transcripts.
Given back: 25

Asked: Would you please give the reported NC1 (SAGE tag count) of CCCAACGCGC (chemistry not fully specified) with colorectal tissue transcripts?
Given back: 106

Asked: Tell me NC1 (SAGE tag count) of AGGTGACTGG (chemistry not fully specified) when tested on colorectal tissue transcripts.
Given back: 10

Asked: # return NC1 (SAGE tag count) of GTCCGAGTGC (chemistry not fully specified) (system: colorectal tissue transcripts)
Given back: 17

Asked: # assay system colorectal tissue transcripts: give NC1 (SAGE tag count) of GCTGCCCTTG (chemistry not fully specified)
Given back: 44
